Experiment Description: NCI Yeast Anticancer Drug Screen. Data for the wt1 strain (AID 149);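 also: 0% = growth of vehicle-treated wt1 cultures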
Assay Setup: S. cerevisiae wt1 strain (SPY 50644) growth inhibition; at 1.2 µM; active compounds read high
The panel holds about 79,000 compounds, 15% with a hit somewhere; the sample as a whole holds those more often.
Please provide measured growth inhibition for the entries that follow.
Give bare numbers, in %.

| Compound | growth inhibition, % |
| --- | --- |
| Cc1ccc(C)c(C(=N)c2ccccc2Cc2ccccc2)c1 | -3 |
| O=C(NCCNCCNC(=O)c1cc(-c2ccccc2)nc2ccccc12)c1cc(-c2ccccc2)nc2ccccc12 | -2 |
| O=C(O)c1c2ccc(Cl)cc2nc2[nH]c(=O)[nH]c(=O)c12 | -37 |
| Cc1cccc2c(NCCCN(C)C)c3c([N+](=O)[O-])ccc(C)c3nc12 | 5 |
| COc1ccccc1/C=C\C(=O)C1COCN1 (stereo not given) | -4 |
| CC(=O)NC(c1nc2cc(C)c(C)cc2[nH]1)c1nc2cc(C)c(C)cc2[nH]1 | -20 |
| COc1cc2c(cc1OC)[C@@H](Nc1ccc(C#N)cc1)C1COC(=O)[C@@H]1C2c1cc(OC)c(O)c(OC)c1 (stereo not given in full) | -34 |
| O=C(c1ccccc1)[C@H]1Nc2ccc(Cl)cc2[C@H]2OCCC[C@@H]12 | -7 |

Kindly give each listed record's growth inhibition.
1. Nc1cc2ccccc2cc1N
2. COc1ccc2c3c1OC(C)C31CC(=O)CCC1CC2 (stereo not given)
3. O=P(C(=S)Nc1c(Cl)cccc1Cl)(c1ccccc1)c1ccccc1
4. c1ccc2c(c1)N=C1CCCC3CCCC123 (stereo not given)
5. CCC(/C=C/c1ccccc1)=N\Nc1ccc(Cl)cc1
6. C[n+]1c(-c2ccc(/C=N/NC(=O)c3ccc(C(=O)N/N=C/c4ccc(-c5cn6ccccc6[n+]5C)cc4)cc3)cc2)cn2ccccc21
7. O=C(O)c1cc2c(cc1S(=O)(=O)O)C1C(C3C2C2(Cl)C(Cl)=C(Cl)C3(Cl)C2(Cl)Cl)C2(Cl)C(Cl)=C(Cl)C1(Cl)C2(Cl)Cl (stereo not given)

1. -28
2. -3
3. 31
4. -2
5. 0
6. 9
7. 2

Look up growth inhibition for the entries below, preserving their order.
1. O=C(NC(N1CCN(c2cc3c(cc2F)c(=O)c(C(=O)O)cn3C2CC2)CC1)(C(F)(F)F)C(F)(F)F)c1ccccc1
2. O=[N+]([O-])c1cccc2nc3ccccc3c(NCCCN3CCCCC3)c12
3. CCN(CC)CCCNc1ccc([N+](=O)[O-])c2nc3ccc(OC)cc3c(NCCCN(CC)CC)c12

[-2, 3, -81]

Hi! Can you tell me growth inhibition for each of these compounds?
1. O=C(Nn1c(-c2ccccc2)nc2ccccc2c1=O)c1ccc(CS)cc1
2. CC1(C)CC(=O)C(C=NC(=S)C(N)=S)=C(O)C1

[-4, -30]

* * *

Experiment Description: NCI Yeast Anticancer Drug Screen. Data for the rad18 strain (AID 177)
Assay Setup: S. cerevisiae rad18 mutant growth inhibition; at 1.2 µM; active compounds read high
About 79,000 compounds went through this panel and 15% of them were active in at least one assay; those are over-represented in the sample as a whole.
Would you mind telling me the reported growth inhibition of each entry?
Give bare numbers, in %.

Known results for molecules:
| Molecule | Unit Of Measure | growth inhibition |
| --- | --- | --- |
| OC(CC(O)(C(F)(F)F)C(F)(F)F)c1ccc(C(O)CC(O)(C(F)(F)F)C(F)(F)F)cc1 (stereo not given) | % | 40 |
| CCCCCCCC/C=C\CCCCCCCCN | % | -1 |
| CCCCCCCCNCCCCCCCC | % | 14 |
| CN1CCN(C(=O)c2cccc3cccc(C(=O)O)c23)CC1 | % | 11 |
| O=C(NC(N1CCN(c2cc3c(cc2F)c(=O)c(C(=O)O)cn3C2CC2)CC1)(C(F)(F)F)C(F)(F)F)c1ccccc1 | % | -3 |
| COC(=O)C(Cl)(Cl)N=Nc1c(Cl)cc(Cl)c(C)c1Cl | % | 28 |

Please report growth inhibition for every entry that follows.
1. CC1CN(/N=C\c2ccc([N+](=O)[O-])o2)C(=O)O1 (stereo not given)
2. COc1ccc2nc3cccc([N+](=O)[O-])c3c(NCCNCCN(C)C)c2c1
3. NC(N)=NS(=O)(=O)c1ccc(Nc2c3ccccc3nc3c(C(=O)NC(CO)(CO)CO)cccc23)cc1
4. O=C1c2ccccc2-c2ccc(N=Cc3ccccc3)cc21

1: 78; 2: -5; 3: -3; 4: -10

* * *

Experiment Description: NCI Yeast Anticancer Drug Screen. Data for the sgs1 strain (AID 173);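 also: 0% = growth of vehicle-only control cultures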
Assay Setup: S. cerevisiae sgs1 mutant, at 33.0 µM, active compounds read high
Compounds without any hit were thinned out: in the full panel of roughly 79,000, 15% have a hit.
For each of the compounds below, state its growth inhibition.
One number for each entry, in %.

Reference set (8 entries):
| Compound | growth inhibition (%) |
| --- | --- |
| CC(=O)NC(c1nc2cc(C)c(C)cc2[nH]1)c1nc2cc(C)c(C)cc2[nH]1 | 36 |
| COc1cc(OC)c(CSCC(NC(=O)OCC2c3ccccc3-c3ccccc32)C(=O)O)c(OC)c1 (stereo not given) | 95 |
| CCCCCCNCCCNc1c2cc(OC)ccc2nc2cccc([N+](=O)[O-])c12 | 95 |
| COc1ccc2cc3c4cc5c(cc4cc[n+]3cc2c1OC)OCO5 | 96 |
| Nc1ccc(S(=O)(=O)Nc2nc3c(c(=O)[nH]2)CCCC3)cc1 | 99 |
| CCCCOc1ccc2nc(C)cc(N=[N+]=[N-])c2c1 | 41 |
| CN1CCN(C(=O)c2cccc3cccc(C(=O)O)c23)CC1 | 16 |
| O=C1C[C@H]2[C@H](c3ccc(Br)cc3)[C@H]3C(=O)c4ccccc4NC(=O)[C@@H]3[C@@]2(O)c2ccccc2N1 | 44 |

For every listed record, write down its growth inhibition.
1. O=c1c2ccccc2nc(-c2cccc([N+](=O)[O-])c2)n1O
2. Cc1ccnc2c(O)cccc12

[94, 99]

* * *

Experiment Description: NCI Yeast Anticancer Drug Screen. Data for the rad18 strain (AID 177)
Assay Setup: S. cerevisiae rad18 mutant growth inhibition; at 3.7 µM; active compounds read high
About 79,000 compounds went through this panel and 15% of them were active in at least one assay; those are over-represented in the sample as a whole.
Mark label 1 for reported growth inhibition of 10% or greater; mark label 0 for anything smaller.

Solved entries (count: 4):
| Compound | Class Assignment |
| --- | --- |
| CCOC(=O)/C(=C\c1ccc(F)cc1)C(C)=O | label 1 |
| CC(C)OC(=O)NNc1cccc(Cl)c1 | label 1 |
| N#CCCC1C(C#N)C2(Cl)CC1(Cl)C(Cl)=C2Cl (stereo not drawn) | label 0 |
| CCC(C)COC(=O)Nc1cccc(Cl)c1 (stereo not drawn) | label 0 |

Hi team, for O=C1SS(=O)c2ccccc21 (stereo not drawn) , is the recorded growth inhibition at or above 10%?
label 1

Is growth inhibition at least 10%? Consider O=C1Nc2ccc(Br)cc2C1=Nc1ccc(Cl)cc1
label 0

Threshold query (growth inhibition >= 10%) on CC(C)(CN1CCCCC1)C(=O)/C=C/c1c(Cl)cccc1Cl
label 1

Given COC(=O)c1cnc(Cl)c([N+](=O)[O-])c1 , state whether its growth inhibition is at least 10%.
label 1

* * *

Experiment Description: NCI Yeast Anticancer Drug Screen. Data for the sgs1 mgt1 strain (AID 161);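 also: 0% = growth of cultures given vehicle only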
Assay Setup: S. cerevisiae sgs1 mgt1 strain, at 5.0 µM (retest, dose inferred, filed as 0.5), active compounds read high
About 79,000 compounds went through this panel and 15% of them were active in at least one assay; those are over-represented in the sample as a whole. Active and inactive are the calls of the source. Rule as the data show it: active = growth inhibition above about 70%; inactive = the rest.
Quantity Name: growth inhibition

| Compound | growth inhibition |
| --- | --- |
| O=C(O)C1CCCCC1c1c2ccc(=O)cc-2oc2cc(O)ccc12 (centres undefined) | 10% (inactive) |
| O=C(c1ccccc1)[C@H]1Nc2ccc(Cl)cc2[C@H]2OCCC[C@@H]12 | -18% (inactive) |
| COc1ccc(N=c2cc(-c3ccccc3)oc3ccccc23)cc1 | 1% (inactive) |

# batch: return growth inhibition for each of the 2 compounds below
1. CC(/C=C/c1ccc([N+](=O)[O-])o1)=N/N1CC(CN2CCOCC2)OC1=O (centres undefined)
2. Cc1ccc([N+](=O)[O-])c2c(NCCC[N+](C)(C)[O-])c3ccccc3nc12

1. 22% (inactive)
2. 6% (inactive)

Items follow; give growth inhibition for each.
1. NCCCSc1ccccc1
2. Cc1cccc(/C=N/NC(=S)NC2CCCCC2)n1
3. O=C1c2cccc3cccc(c23)C(=O)N1CCNCCN1C(=O)c2cccc3cccc(c23)C1=O
4. C[N+](C)([O-])CCCNc1c2ccccc2nc2cccc([N+](=O)[O-])c12
5. O=[N+]([O-])c1cccc2nc3ccccc3c(NCCCN3CCCCC3)c12

1. -11% (inactive)
2. -25% (inactive)
3. 5% (inactive)
4. 41% (inactive)
5. 92% (active)

For every listed record, write down its growth inhibition.
1. CC(C)N(CCCNc1c2ccccc2nc2cccc([N+](=O)[O-])c12)C(C)C
2. COC(=O)c1cnc(Cl)c([N+](=O)[O-])c1
3. CCC(C)(C)c1ccc(Oc2ccccc2)c(N)c1
4. CCCCS(=O)(=O)Nc1ccc(Nc2c3ccccc3nc3ccccc23)c(OC)c1
5. O=C1C2=C(c3ccccc31)C(c1ccccc1)N1C(=O)CSC1=N2 (centres undefined)

["91% (active)", "47% (inactive)", "2% (inactive)", "44% (inactive)", "11% (inactive)"]

Hi! Can you tell me growth inhibition for each of these compounds?
1. CC(C)C(=O)CC(Sc1ccc(N)cc1)c1ccccc1 (centres undefined)
2. CC1C(c2ccccc2)SC(=N)N1C (centres undefined)
3. O=C(Cc1ccccc1)NN1C(=O)C(Cl)C1c1cc(Br)cc(Br)c1O (centres undefined)
4. O=C1CCC(Cc2ccccc2)CN1 (centres undefined)
5. CC1(C)CC(=O)C(C=NC(=S)C(N)=S)=C(O)C1
6. CCCCCCCCSC1=C(Cl)C(=O)C(OC)=C(OC)C1=O

["-26% (inactive)", "12% (inactive)", "61% (inactive)", "3% (inactive)", "-2% (inactive)", "22% (inactive)"]
